# Protocol Notes: Solubility in sodium phosphate buffer
# Type: physicochemical
# Experimental Conditions: aqueous buffer, kinetic from dmso stock; sodium phosphate buffer (pH 7.4, 0.1 M) containing 1% DMSO
# Experimental: To our knowledge, no systematic studies of selenoureas as sEH inhibitors have been performed previously. The potency of the compounds was determined against the human recombinant sEH and their solubility assessed in phosphate-buffered saline (Table 1).
I'd appreciate it if you could supply solubility values for the items below.
One number for each entry, in µM.

1. [Se]=C(NCc1ccccc1)Nc1ccc(C23CC4CC(CC(C4)C2)C3)cc1 [5e] | 200
2. [Se]=C(NCCC12CC3CC(CC(C3)C1)C2)Nc1ccccc1 [4d] | 70
3. [Se]=C(Nc1ccccc1)NC1C2CC3CC(C2)CC1C3 (stereo not drawn) [4g, 1-(Adamantan-2-yl)-3-phenylselenourea] | 80

For every item in the list below, what is its measured solubility?
1. [Se]=C(NCCC12CC3CC(CC(C3)C1)C2)NCc1ccccc1 [5d]
2. CC(NC(=[Se])Nc1ccccc1)C12CC3CC(CC(C3)C1)C2 (stereo not drawn) [4c]

140
50

Field: solubility. Fill in for each record below.
1. CC(NC(=[Se])NCc1ccccc1)C12CC3CC(CC(C3)C1)C2 (stereo not drawn) [5c]
2. [Se]=C(NCc1ccccc1)NC1C2CC3CC(C2)CC1C3 (stereo not drawn) [5g, 1-(Adamantan-2-yl)-3-benzylselenourea]

110
110

# return solubility for each item in the list
1. [Se]=C(NCC12CC3CC(CC(C3)C1)C2)Nc1ccccc1 [4b]
2. CC12CC3CC(C)(C1)CC(NC(=[Se])Nc1ccccc1)(C3)C2 [4f]

1: 110; 2: 100
